From: the supplement of paper PMC10567573

B1: MLL5 (parent)
chain: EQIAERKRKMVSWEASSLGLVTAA

- Variants of: B1
- measurement.protocol: protein stability index of a GFP-peptide fusion (GPS, HEK-293T) (PSI 1-6); higher = more stable;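 further: lentivirally expressed fusions sorted by FACS into six bins by GFP to DsRed ratio, PSI derived from sequencing read proportions per bin multiplied by bin number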
- experimental.conditions: c terminus: a fixed tail appended
Would you mind telling me the reported protein stability index of each entry?
Form: value (number only, do not type unit).

Indicate the recorded protein stability index value for this variant: L18Q
3.72

Indicate the recorded protein stability index value for this variant: R8F
2.01

Indicate the recorded protein stability index value for this variant: A4D
3.67

Indicate the recorded protein stability index value for this variant: R6T
3.54

Indicate the recorded protein stability index value for this variant: L18E
4.66

Indicate the recorded protein stability index value for this variant: E14D
2.07

Indicate the recorded protein stability index value for this variant: R6D
3.98

Indicate the recorded protein stability index value for this variant: G19K
3.09

Indicate the recorded protein stability index value for this variant: E5P
3.01

Indicate the recorded protein stability index value for this variant: R6K
3.18

Indicate the recorded protein stability index value for this variant: A4K
3.36

Indicate the recorded protein stability index value for this variant: S17H
2.7

Indicate the recorded protein stability index value for this variant: E14S
2.47

Indicate the recorded protein stability index value for this variant: E1D
3.35

Indicate the recorded protein stability index value for this variant: W13Q
4.56

Indicate the recorded protein stability index value for this variant: L18Y
2.77

Indicate the recorded protein stability index value for this variant: E14F
1.97

Indicate the recorded protein stability index value for this variant: A24H
3.17

Indicate the recorded protein stability index value for this variant: S17E
3.41

Indicate the recorded protein stability index value for this variant: A23Y
2.28

Indicate the recorded protein stability index value for this variant: E1C
1.44

Indicate the recorded protein stability index value for this variant: S17W
1.76

Indicate the recorded protein stability index value for this variant: S12C
2.36
